Tgt: His tagged full-length PTP1B protein (Homo sapiens)
Sequence (P18031 with tags, fused parts or gaps): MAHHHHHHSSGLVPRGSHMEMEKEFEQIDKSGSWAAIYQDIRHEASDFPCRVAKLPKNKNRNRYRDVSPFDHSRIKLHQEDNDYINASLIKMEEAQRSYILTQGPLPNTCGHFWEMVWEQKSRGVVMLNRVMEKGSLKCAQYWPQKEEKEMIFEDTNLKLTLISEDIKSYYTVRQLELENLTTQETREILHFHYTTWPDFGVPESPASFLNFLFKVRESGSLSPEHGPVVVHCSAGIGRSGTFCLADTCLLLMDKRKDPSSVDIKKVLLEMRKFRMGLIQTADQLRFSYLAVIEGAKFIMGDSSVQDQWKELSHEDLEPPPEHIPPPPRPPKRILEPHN
IC50 reference
Observation type: IC50

[[record]]
compound = "N#CC1(COc2ccc3cc(O)c(N4CC(=O)NS4(=O)=O)c(F)c3c2)CC1 [Compound 199]"
result = "> 100 nM"

[[record]]
compound = "CS(=O)(=O)N1CC[C@@H](Nc2ccc3cc(O)c(N4CC(=O)NS4(=O)=O)c(F)c3c2)C1 [Compound 304]"
result = "10 to 100 nM"

[[record]]
compound = "CC(C)C/C=C/c1ccc2cc(O)c(N3CC(=O)NS3(=O)=O)c(F)c2c1 [Compound 240]"
result = "1 to 10 nM"

[[record]]
compound = "O=C1CN(c2c(O)cc3ccc(NCCCC(F)F)cc3c2F)S(=O)(=O)N1 [Compound 324]"
result = "< 1 nM"

[[record]]
compound = "O=C1CN(c2c(O)cc3ccc(OCC4CCNCC4)cc3c2F)S(=O)(=O)N1 [Compound 114]"
result = "1 to 10 nM"

[[record]]
compound = "O=C1CN(c2c(O)cc3ccc(OCCOCC4CC4)cc3c2F)S(=O)(=O)N1 [Compound 212]"
result = "1 to 10 nM"

[[record]]
compound = "COCC1(CCOc2ccc3cc(O)c(N4CC(=O)NS4(=O)=O)c(F)c3c2)CC1 [Compound 160]"
result = "1 to 10 nM"

[[record]]
compound = "CC(C)Oc1ccc2cc(O)c(N3CC(=O)NS3(=O)=O)c(F)c2c1 [Compound 279]"
result = "> 100 nM"


----------
Tgt: His tagged PTPN2 (TC45) protein (Homo sapiens)
Sequence (P17706 with tags, fused parts or gaps isoform P17706-2): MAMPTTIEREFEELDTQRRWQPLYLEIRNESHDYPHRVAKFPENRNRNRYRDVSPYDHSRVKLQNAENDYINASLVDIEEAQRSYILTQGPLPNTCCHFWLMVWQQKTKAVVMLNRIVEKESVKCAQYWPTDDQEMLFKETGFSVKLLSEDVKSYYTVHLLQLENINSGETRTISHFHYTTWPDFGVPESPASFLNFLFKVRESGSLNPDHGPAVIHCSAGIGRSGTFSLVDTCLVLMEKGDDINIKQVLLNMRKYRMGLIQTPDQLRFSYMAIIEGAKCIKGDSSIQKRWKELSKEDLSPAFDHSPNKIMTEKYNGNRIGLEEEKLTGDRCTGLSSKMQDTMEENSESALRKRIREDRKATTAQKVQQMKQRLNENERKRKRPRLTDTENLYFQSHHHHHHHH
pIC50: −log10 of the molar value.
Observation type: pIC50

[[record]]
compound = "CC(C)CCOc1cc2c(F)c(N3CC(=O)NS3(=O)=O)c(O)cc2cc1O"
result = "> 9.00"

[[record]]
compound = "COc1ccc2c(F)c(N3CC(=O)NS3(=O)=O)c(O)cc2c1"
result = "7.00 to 8.00"

[[record]]
compound = "Nc1ccc2c(F)c(N3CC(=O)NS3(=O)=O)c(O)cc2c1"
result = "8.00 to 9.00"

[[record]]
compound = "NCC1(CCOc2ccc3cc(O)c(N4CC(=O)NS4(=O)=O)c(F)c3c2)CCC1"
result = "8.00 to 9.00"

[[record]]
compound = "CC(C)(O)CCCc1ccc2cc(O)c(N3CC(=O)NS3(=O)=O)c(F)c2c1"
result = "> 9.00"

[[record]]
compound = "O=C1CN(c2c(O)cc3cc(O)c(Br)cc3c2F)S(=O)(=O)N1"
result = "8.00 to 9.00"

[[record]]
compound = "O=C1CN(c2c(O)cc3cc(OCC4CC4)ccc3c2F)S(=O)(=O)N1"
result = "7.00 to 8.00"

[[record]]
compound = "COCCCOc1cc2c(F)c(N3CC(=O)NS3(=O)=O)c(O)cc2cc1O"
result = "> 9.00"

[[record]]
compound = "O=C1CN(c2c(O)cc3ccc(OCCC4CCC4)cc3c2F)S(=O)(=O)N1"
result = "> 9.00"

[[record]]
compound = "CC(O)(CO)CCOc1ccc2cc(O)c(N3CC(=O)NS3(=O)=O)c(F)c2c1 (stereo not drawn)"
result = "> 9.00"

[[record]]
compound = "CC(C)(C#N)CCOc1cc2c(F)c(N3CC(=O)NS3(=O)=O)c(O)cc2cc1O"
result = "> 9.00"

[[record]]
compound = "O=C1CN(c2c(O)cc3ccc(OCCC45CC(C4)C5)cc3c2F)S(=O)(=O)N1"
result = "> 9.00"

[[record]]
compound = "CC(C)(O)CCNc1ccc2c(F)c(N3CC(=O)NS3(=O)=O)c(O)cc2c1"
result = "7.00 to 8.00"

[[record]]
compound = "NCCOc1ccc2c(F)c(N3CC(=O)NS3(=O)=O)c(O)cc2c1"
result = "7.00 to 8.00"

[[record]]
compound = "O=C1CN(c2c(O)cc3ccc(OCCN4Cc5ccccc5C4)cc3c2F)S(=O)(=O)N1"
result = "8.00 to 9.00"

[[record]]
compound = "CCN(C)CCOc1ccc2cc(O)c(N3CC(=O)NS3(=O)=O)c(F)c2c1"
result = "8.00 to 9.00"

[[record]]
compound = "O=C1CN(c2c(O)cc3ccc(OCCN4CCC[C@H]4C(F)(F)F)cc3c2F)S(=O)(=O)N1"
result = "8.00 to 9.00"

[[record]]
compound = "CC(C)(C)OC(=O)NCCOc1ccc2c(F)c(N3CC(=O)NS3(=O)=O)c(O)cc2c1"
result = "7.00 to 8.00"

[[record]]
compound = "O=C1CN(c2c(O)cc3ccc(OCCCC(F)(F)CO)cc3c2F)S(=O)(=O)N1"
result = "> 9.00"

[[record]]
compound = "CC(C)(CO)CS(=O)(=O)N1CC=C(c2ccc3cc(O)c(N4CC(=O)NS4(=O)=O)c(F)c3c2)C1"
result = "> 9.00"

[[record]]
compound = "O=C1CN(c2c(O)cc3cc(O)c(OCCC4CCCO4)cc3c2F)S(=O)(=O)N1 (stereo not drawn)"
result = "> 9.00"

[[record]]
compound = "C[C@](O)(CC#N)CCOc1ccc2cc(O)c(N3CC(=O)NS3(=O)=O)c(F)c2c1"
result = "> 9.00"

[[record]]
compound = "CCCCOc1cc2c(F)c(N3CC(=O)NS3(=O)=O)c(O)cc2cc1O"
result = "> 9.00"

[[record]]
compound = "O=C1CN(c2c(O)cc3ccc(OCC45CC(CCO)(C4)C5)cc3c2F)S(=O)(=O)N1"
result = "8.00 to 9.00"

[[record]]
compound = "O=C1CN(c2c(O)cc3ccc(OCCN4CC(F)(F)C4)cc3c2F)S(=O)(=O)N1"
result = "8.00 to 9.00"

[[record]]
compound = "O=C1CN(c2c(O)cc3cc(NCCCC(F)F)ccc3c2F)S(=O)(=O)N1"
result = "7.00 to 8.00"

[[record]]
compound = "CC(C)(CCN)CCOc1ccc2cc(O)c(N3CC(=O)NS3(=O)=O)c(F)c2c1"
result = "> 9.00"

[[record]]
compound = "NCC12CC(CCOc3ccc4cc(O)c(N5CC(=O)NS5(=O)=O)c(F)c4c3)(C1)C2"
result = "8.00 to 9.00"

[[record]]
compound = "O=C1CN(c2c(O)cc3ccc(C4=CCN(S(=O)(=O)CCCO)C4)cc3c2F)S(=O)(=O)N1"
result = "> 9.00"

[[record]]
compound = "O=C1CN(c2c(O)cc3ccc(OCCCC(F)F)cc3c2F)S(=O)(=O)N1"
result = "> 9.00"

[[record]]
compound = "C[C@@H](O)C[C@@H](O)COc1ccc2cc(O)c(N3CC(=O)NS3(=O)=O)c(F)c2c1 (racemic)"
result = "8.00 to 9.00"

[[record]]
compound = "COc1cc2c(F)c(N3CC(=O)NS3(=O)=O)c(O)cc2cc1O"
result = "8.00 to 9.00"

[[record]]
compound = "NCCCS(=O)(=O)N1CC=C(c2ccc3cc(O)c(N4CC(=O)NS4(=O)=O)c(F)c3c2)C1"
result = "> 9.00"


----------
Tgt: His tagged full-length PTP1B protein (Homo sapiens, UniProt P18031)
Observation type: IC50

[[record]]
chem_smiles = "C[C@@](O)(CC#N)CCOc1ccc2cc(O)c(N3CC(=O)NS3(=O)=O)c(F)c2c1"
result = "< 1 nM"

[[record]]
chem_smiles = "O=C1CN(c2c(O)cc3ccc(-c4cnn(S(=O)(=O)C5CC5)c4)cc3c2F)S(=O)(=O)N1"
result = "1 to 10 nM"

[[record]]
chem_smiles = "O=C1CN(c2c(O)cc3ccc(CC4CN(S(=O)(=O)C5CC5)C4)cc3c2F)S(=O)(=O)N1"
result = "1 to 10 nM"

[[record]]
chem_smiles = "O=C1CN(c2c(O)cc3ccc(C4=CCN(S(=O)(=O)c5ccoc5)C4)cc3c2F)S(=O)(=O)N1"
result = "< 1 nM"

